measured-target: T1, recombinant rat MASP1 active protease (amino acids 302-704, C-terminal His Tag) (rat, UniProt Q8CHN8 302-704)
T1 sequence: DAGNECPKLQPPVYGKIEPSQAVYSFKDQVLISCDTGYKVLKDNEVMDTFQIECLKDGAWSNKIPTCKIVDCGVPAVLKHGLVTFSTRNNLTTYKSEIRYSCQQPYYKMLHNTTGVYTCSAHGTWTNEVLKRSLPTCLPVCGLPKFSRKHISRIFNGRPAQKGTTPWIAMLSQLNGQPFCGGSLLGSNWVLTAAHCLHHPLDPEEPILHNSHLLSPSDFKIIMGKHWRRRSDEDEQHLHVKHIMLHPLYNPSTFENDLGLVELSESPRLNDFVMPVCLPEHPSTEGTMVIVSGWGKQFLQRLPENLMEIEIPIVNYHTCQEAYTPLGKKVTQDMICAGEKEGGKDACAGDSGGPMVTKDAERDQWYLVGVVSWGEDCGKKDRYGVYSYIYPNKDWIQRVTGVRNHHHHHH
measurement-notes: cell-based or functional assay
Numbered stars: 1 amine (or outer) side, 2 acyl side, 3 side chain; on linkers, the order of the positions; unused ones are H or OH. Bridge positions count the residues as written; N and C are the ends. Square brackets hold non-standard residues; d marks the D form. Ends that are not written are not given here. * marks the point of attachment. NHCH2(1,3-C6H4)CH2CO = O=C(Cc1cccc(CN[*:1])c1)[*:2]; Oic = O=C(O)[C@@H]1C[C@@H]2CCCC[C@@H]2N1; tBuAla = CC(C)(C)C[C@H](N)C(=O)O; Pen = CC(C)(S)[C@H](N)C(=O)O; NMePro = CN1CCC[C@H]1C(=O)*; Sar = CNCC(=O)O
outcome-measure: rat MASP1 IC50 (nM)
Please respond with the number in nM and leave the unit unwritten.

>>> numeric_result("AICSRS[tBuAla]PPI[Pen]IPD-OH (disulfide 3-11; N-terminus assumed; SMILES CC[C@H](C)[C@H](NC(=O)[C@H](C)N)C(=O)N[C@H]1CSSC(C)(C)[C@@H](C(=O)N[C@H](C(=O)N2CCC[C@H]2C(=O)N[C@@H](CC(=O)O)C(=O)O)[C@@H](C)CC)NC(=O)[C@H]([C@@H](C)CC)NC(=O)[C@@H]2CCCN2C(=O)[C@@H]2CCCN2C(=O)[C@H](CC(C)(C)C)NC(=O)[C@H](CO)NC(=O)[C@H](CCCNC(=N)N)NC(=O)[C@H](CO)NC1=O) [Example 12: AIC+SRS-((tBu)A)-PPI-(Pen)+IPD-OH]")
13

Req: Dear colleague, I am looking for the recorded rat MASP1 IC50 of the following binder: [Sar]ICSRSLP[Oic]I[Pen]IP[NHCH2(1,3-C6H4)CH2CO]-OH (disulfide 3-11; N-terminus assumed; SMILES CC[C@H](C)[C@H](NC(=O)CNC)C(=O)N[C@H]1CSSC(C)(C)[C@@H](C(=O)N[C@H](C(=O)N2CCC[C@H]2C(=O)NCc2cccc(CC(=O)O)c2)[C@@H](C)CC)NC(=O)[C@H]([C@@H](C)CC)NC(=O)[C@@H]2C[C@@H]3CCCC[C@@H]3N2C(=O)[C@@H]2CCCN2C(=O)[C@H](CC(C)C)NC(=O)[C@H](CO)NC(=O)[C@H](CCCNC(=N)N)NC(=O)[C@H](CO)NC1=O) [Example 477: ((N-Me)G)-IC+SRSLP-(Oic)-I-(Pen)+IP-(3-Aminomethylphenylacetic acid)-OH]
Resp: 154

Req: Dear colleague, I am looking for the recorded rat MASP1 IC50 of the following binder: [NMePro]ICSRS[tBuAla]PPICIPD-NH2 (disulfide 3-11; SMILES CC[C@H](C)[C@H](NC(=O)[C@@H]1CCCN1C)C(=O)N[C@H]1CSSC[C@@H](C(=O)N[C@H](C(=O)N2CCC[C@H]2C(=O)N[C@@H](CC(=O)O)C(N)=O)[C@@H](C)CC)NC(=O)[C@H]([C@@H](C)CC)NC(=O)[C@@H]2CCCN2C(=O)[C@@H]2CCCN2C(=O)[C@H](CC(C)(C)C)NC(=O)[C@H](CO)NC(=O)[C@H](CCCNC(=N)N)NC(=O)[C@H](CO)NC1=O) [Example 250: ((N-Me)P)-IC+SRS-((tBu)A)-PPIC+IPD-NH2]
Resp: 77

Req: Dear colleague, I am looking for the recorded rat MASP1 IC50 of the following binder: AICSRS[tBuAla]PPI[Pen]IPD-NH2 (disulfide 3-11; N-terminus assumed; SMILES CC[C@H](C)[C@H](NC(=O)[C@H](C)N)C(=O)N[C@H]1CSSC(C)(C)[C@@H](C(=O)N[C@H](C(=O)N2CCC[C@H]2C(=O)N[C@@H](CC(=O)O)C(N)=O)[C@@H](C)CC)NC(=O)[C@H]([C@@H](C)CC)NC(=O)[C@@H]2CCCN2C(=O)[C@@H]2CCCN2C(=O)[C@H](CC(C)(C)C)NC(=O)[C@H](CO)NC(=O)[C@H](CCCNC(=N)N)NC(=O)[C@H](CO)NC1=O) [Example 98: AIC+SRS-((tBu)A)-PPI-(Pen)+IPD-NH2]
Resp: 17
